B1: VH:VL chains; a variant is named by its letters at X, in order (parent)
chain 1: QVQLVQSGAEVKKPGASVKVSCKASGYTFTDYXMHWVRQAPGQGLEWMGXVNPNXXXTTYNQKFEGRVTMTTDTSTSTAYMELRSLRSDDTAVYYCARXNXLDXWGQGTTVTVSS
chain 2: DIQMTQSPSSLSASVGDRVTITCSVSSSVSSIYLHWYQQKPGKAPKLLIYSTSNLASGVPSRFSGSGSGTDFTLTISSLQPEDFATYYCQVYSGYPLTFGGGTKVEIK

variants of: B1; test: yeast display scFab, FACS + sequencing

{"Sequence change": "VRTEDDVD", "non-specific binding call": "no binding"}
{"Sequence change": "DGGKNDWV", "non-specific binding call": "no binding"}
{"Sequence change": "DTKAASGV", "non-specific binding call": "no binding"}
{"Sequence change": "DREEGAVA", "non-specific binding call": "no binding"}
{"Sequence change": "YRGRSAWF", "non-specific binding call": "binds"}
{"Sequence change": "SEARSAVS", "non-specific binding call": "no binding"}
{"Sequence change": "YKGRGYAA", "non-specific binding call": "binds"}
{"Sequence change": "DTGTGDWV", "non-specific binding call": "no binding"}
{"Sequence change": "DRARTFVA", "non-specific binding call": "binds"}
{"Sequence change": "YREKGSAA", "non-specific binding call": "binds"}
{"Sequence change": "FAAKTAAA", "non-specific binding call": "binds"}
